Measured values drawn from the supplement of paper PMC8671470 for this set.

test system: myeloid leukemia patient primary cells Pat.3; test: cell viability (% survival relative to DMSO control); higher = less cytotoxic; conditions: 100 nM; 72 h
// NB: equality with 70% counts as N; only cell viability strictly below is Y

Worked examples, 3 compounds total:
{"Compound": "CC(Cc1ccc(O)c(O)c1)C(C)Cc1ccc(O)c(O)c1 (stereo not given)", "Class Label": "N"}
{"Compound": "CC12CCC(O)CC1CCC1C2CCC2(C)C(C3=CC(=O)OC3)CCC12O (stereo not given)", "Class Label": "Y"}
{"Compound": "CCOC(=O)N1c2ccc(C(F)(F)F)cc2[C@@H](N(Cc2cc(C(F)(F)F)cc(C(F)(F)F)c2)C(=O)OC)C[C@H]1CC", "Class Label": "N"}

Please find the next compound below.
Problem: Does this compound meet the criterion cell viability < 70%? Nc1ccn([C@@H]2O[C@H](CO)[C@@H](O)[C@@H]2O)c(=O)n1
Solution: Y
